pIC50 values recorded for His-Brd3(20-477) (Homo sapiens (Human), UniProt Q15059)
Expect pIC50 as a plain number equal to -log10 of the molar concentration.

Recorded pIC50 for Cc1nn(C(C)C)c2c1C(c1ccc(F)cc1F)N(c1cc(C)c3nnc(C)n3c1)C2=O (stereo not shown) , please?
7.14

Recorded pIC50 for Cn1cc2c(n1)C(=O)N(c1cc(Cl)c(=O)n(C)c1)C2c1ccc(Cl)cc1 (stereo not shown) , please?
6.89

Recorded pIC50 for CNC(=O)n1nc(C)c2c1C(=O)N(c1cc(C)c3nnc(C)n3c1)C2c1ccc(Cl)cc1 (stereo not shown) , please?
6.72

Recorded pIC50 for CCc1nn(C)c2c1C(c1ccc(Cl)cc1)N(c1cc(OC)c3nnc(C)n3c1)C2=O (stereo not shown) , please?
6.82
